// provenance: the supplement of paper PMC9170038

Would you mind telling me the reported apparent KD of MS2 coat protein of each entry?
- System: MS2 coat protein
- test.protocol: apparent KD of MS2 coat protein; designed switch direction (-1 OFF switch, 1 ON switch): -1; higher = weaker reporter binding
- particulars: Eterna round: R95; input ligand: microRNA oligo, concentration not stated
Numbers only, in nM.

Please review the entries below; each comes with its answer.
[[record]]
chain_sequence = "UCAUGUAUGUAGGAUAUCGAUGUCCUCGGACAUCGAGAAGGACGUACAUGAGGAUCACCCAUGUAACUUGCAUG [Exclusion 6 - B - 11:c] (puzzle: Exclusion 6)"
property_label = "apparent KD of MS2 coat protein"
quantity_unit = "nM"
quantitative_readout = 14

[[record]]
chain_sequence = "UAAAGCUUUGAGAUCCUUAACAUGAGGAUCACCCAUGUUCGUCUUAUGAUGGUCUGAUCCCUGAGGAUCGGACCGUU [Mat - Sensor v3 - turn-off var 1 - JL Mod - D5] (puzzle: Sensor v3, turn-off variant 1)"
property_label = "apparent KD of MS2 coat protein"
quantity_unit = "nM"
quantitative_readout = 26.6

[[record]]
chain_sequence = "UUUAACAAGCCAGAUCCUCACAUGAGGAUCACCCAUGUGCUCGUCUGAUUUUGUACUAUCACGUUUGUGAUAGUGUU [Level Boss var2-07] (puzzle: Sensor v3, turn-off variant 1)"
property_label = "apparent KD of MS2 coat protein"
quantity_unit = "nM"
quantitative_readout = 19.1

[[record]]
chain_sequence = "ACAAGCUUUUUGUUCGUCUUAUAAAAUCCUAAGAGGAUAACAUGAGGAUCACCCAUGUAACAAAGACGGACUCAUGU [Sesor Array 13 - Jieux - Sensor v3, turn-off variant 2] (puzzle: Sensor v3, turn-off variant 2)"
property_label = "apparent KD of MS2 coat protein"
quantity_unit = "nM"
quantitative_readout = 120

[[record]]
chain_sequence = "UAUCCACAUGAGGAUCACCCAUGUGAGGAUAUGAUACUAUGUACUUCGGUACAUAGUAUCAGAAGGCACAGGUC [Ex1-3: 57] (puzzle: Exclusion 1)"
property_label = "apparent KD of MS2 coat protein"
quantity_unit = "nM"
quantitative_readout = 20.3


Each of the following entries comes with a recorded value; kindly state apparent KD of MS2 coat protein for each.
1. GGUACUAACACGAGAGUGUUAGUACUAUAAGCUUGUGUUACAUGAGGAUCACCCAUGUCCUCAUAGGCUCGUCUUAA [Mat - Sensor v3 - Turn-off var 2 - D81] (puzzle: Sensor v3, turn-off variant 2)
2. CAUGUGUAAGGAUAUGACAAUGGUAUCUUCGGAUACCAUUGUCAGAAGGUACAUGAGGAUCACCCAUGUGGAUC [Ex4-3: 20] (puzzle: Exclusion 4)
3. UUUGUUGUUGUGAGGAUAUCGUAGUUAUUUUGAAACGAGAAGGCACAUGAGGAUCACCCAUGUUUGUUGAUGGU [JR_BMOE4_Sub062] (puzzle: Brourd's mod of Exclusion 4)
4. UGUACUAUGCGUGCUGACAUGCGUAGUGCAGCAGGUGUAACAUGAGGAUCACCCAUGUCCUCAUUUGCUCGUCUUAU [SL-sv3-2.06 JL mod] (puzzle: Sensor v3, turn-off variant 2)

[61, 222, 32.4, 176]

Fill in the recorded apparent KD of MS2 coat protein for this sequence, with MS2 coat protein as test system: UUUUAACAUGAGGAUCACCCAUGUGAGGAUAUCGAAAUUUAUAUUAAUAUUUAUAAUUCGAGAAGGCACAUUUU [JMF 53] (puzzle: Exclusion 1) 155

* * *

- Tested on: K4 kissing-loop RNA reporter
- test.protocol: apparent KD of K4 kissing-loop reporter; higher = weaker reporter binding
- particulars: Eterna round: R107; input ligand: FMN 200 uM
property.label: apparent KD of K4 kissing-loop reporter (nM)
Numbers only, in nM.

Please review the entries below; each comes with its answer.
[[record]]
chain_sequence = "GAGAGCCCUGUAGGAUAUGAGUCUAGUGAUGUUAGGCGGUCCAUGCGCGUGGCGCGUUAUGCCCUUUUAGAAGGACAGGGCUCUC [#2 Exclusion - FMN B Attempt #20 (HarryS)]"
target_under_test = "K4 kissing-loop RNA reporter"
property_label = "apparent KD of K4 kissing-loop reporter"
quantitative_readout = 105

[[record]]
chain_sequence = "AAAAUAAAUAGCAGUCACGGAGUGAUGUUCCGAGGACCGGUACGGCCGCCACUCGACCAGACAAAGUCUGGAGGCGGAGACUGCA [#SwitchBubble 20 #K4Early]"
target_under_test = "K4 kissing-loop RNA reporter"
property_label = "apparent KD of K4 kissing-loop reporter"
quantitative_readout = 166


Reported apparent KD of K4 kissing-loop reporter for AGCUGCCGAAUAGAUACCAGUGUCUUUAGUGAUGUUUCAGAGCUGGCACGAUCAGAAGGUCACCCUUGGCAGCUAGUGCCAGCGU [theeternabot_exclusion_KL_Theo_B_39] : what is it? 340

* * *

- Test system: MS2 coat protein
- test.protocol: apparent KD of MS2 coat protein; designed switch direction (-1 OFF switch, 1 ON switch): -1; higher = weaker reporter binding
- particulars: Eterna round: R95; input ligand: none
Would you mind telling me the reported apparent KD of MS2 coat protein of each entry?
Numbers only, in µM.

[[record]]
chain_sequence = "UCAAGCUUUAAGCGUGUGAACAUGAGGAUCACCCAUGUAUUUUUGGUUAGGAGUUCUGUAAGGGAUGCUCGUCUUAU [JR_SWV3TOV1_Sub093] (puzzle: Sensor v3, turn-off variant 1)"
target_under_test = "MS2 coat protein"
quantitative_readout = 0.0507

[[record]]
chain_sequence = "AAGCCUCAGGUUAGGAUAUACGCCUGGCCGAAGGAGUAGAAGGGACAUGAGGAUCACCCAUGUGGGUUCAAAAG [Atanvege] (puzzle: Brourd's mod of Exclusion 4)"
target_under_test = "MS2 coat protein"
quantitative_readout = 0.0449

[[record]]
chain_sequence = "AAAAGGUCAGGAUAUCCAAGAAAAGAAAAGAAAAGAAAAGAGGAGAAGGGACAUGAGGAUCACCCAUGUAAAAG [Default title] (puzzle: Exclusion 4)"
target_under_test = "MS2 coat protein"
quantitative_readout = 0.038

[[record]]
chain_sequence = "CUUAGCCUAAAAUCACGCAAGCUCUUUGCUUGUCUUAAGACAUGAGGAUCACCCAUGUCCGGGCUGAACUUAUGGAA [Qugegele] (puzzle: Sensor v3, turn-off variant 2)"
target_under_test = "MS2 coat protein"
quantitative_readout = 0.021

[[record]]
chain_sequence = "CAUACUAAAGUCAGGAUAUGCAGUCGAAUACGGGUGUAGAAGGGACAUGAGGAUCACCCAUGUAGAUAGUAAAG [EX-4 Malc #20] (puzzle: Brourd's mod of Exclusion 4)"
target_under_test = "MS2 coat protein"
quantitative_readout = 0.0422


Each of the following entries comes with a recorded value; kindly state apparent KD of MS2 coat protein for each.
1. GAAGAAGAGAGAAAAGAAAACAUGAGGAUCACCCAUGUGAGAAGAUGAGGGUGAUACAGGCUAUAUGCUCGUCUUAU (puzzle: Sensor v3, turn-off variant 1)
2. GCAGGAUAAGUGAGGAUAUACCUAUGGAUACAUAGGUAGAAGGCACAUGAGGAUCACCCAUGUUCCUAACCUGC [Fiskers BMX 4 - 68] (puzzle: Brourd's mod of Exclusion 4)
3. AGUGCUAACACGUUGGUGUUAGUACCAUAAGCUUGUGAUACAUGAGGAUCACCCAUGUCCUCAUAAGCUCGUCUUAU [salish99_TOv2_r2_098] (puzzle: Sensor v3, turn-off variant 2)
4. CAGAAUUGAGGAUAUGAUCAAUUUAACAUGAGGAUCACCCAUGUAUGGGAAUGAUUCUGAUCAGAAGGCGAUUCUU [Exclusion 5: 1:a] (puzzle: Exclusion 5)

0.295
0.0151
0.0294
0.461

Reported apparent KD of MS2 coat protein for GAAAAGGUAGGAUAUACGAAAAAAAAGGGUAGAAAAAAAACACAUGAGGAUCACCCAUGUAGAAGGACCAAAAU [salish99_ex2_r3_051] (puzzle: Exclusion 2) : what is it? 0.0267

* * *

Would you mind telling me the reported apparent KD of K4 kissing-loop reporter of each entry?
- Tested on: K4 kissing-loop RNA reporter;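 note: bound reporter read as fluorescence of individual clusters on recovered sequencing chips by microscopy, with normalized cluster intensities fitted with a binding model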
- test.protocol: apparent KD of K4 kissing-loop reporter; higher = weaker reporter binding
- particulars: Eterna round: R107; input ligand: theophylline 20 uM
Give bare numbers, in nM.

Please review the entries below; each comes with its answer.
[[record]]
chain_sequence = "UGUCAUUGGUCGGCCGCCACUCCAUAAAGAGUGAUGUUCUAAAAGACGGAUCGAAAGAUCUGUCGGAGGACCGGGACCGAUGACU [FiskerMod 4 - Jieux - Same State - Tryptophan B]"
quantity_unit = "nM"
quantitative_readout = 549

[[record]]
chain_sequence = "AGUGAUGUUGUGUGAUGUUAGUGAAGUGAUCGAGGACCGGUACGGCCGCCACUCGAGUGAUGAGUGAGUGAUGUUUGUUUAGUGG [#17 K4 Tryptophan A Same State]"
quantity_unit = "nM"
quantitative_readout = 186


# ---- query sequence ----
Fill in the recorded apparent KD of K4 kissing-loop reporter for this sequence, with K4 kissing-loop RNA reporter as test system: CACCCAGUCCUCGAUACCAGACUGGCACGUCAAAAGGUCCAGUGAUGUUGAGCCUAACAAGUCCCUUGGCAGCGACCAGUGUAUU [theeternabot_exclusion_KL_Theo_B_30] 619
